Hello, the source for this data is paper PMC7140002, in case you need it.

# Tgt: LasR (Pseudomonas aeruginosa)
# Construct: LasR-LBD
# Sequence (P25084 1-173): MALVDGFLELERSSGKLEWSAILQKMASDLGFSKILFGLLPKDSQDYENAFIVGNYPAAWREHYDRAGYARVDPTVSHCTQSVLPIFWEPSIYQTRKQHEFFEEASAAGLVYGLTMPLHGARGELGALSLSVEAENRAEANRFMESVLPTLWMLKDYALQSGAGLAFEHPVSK
# Measurement protocol: microscale thermophoresis (no fluorescence signal in thermal shift assay)
# Type: binding
Quantity name: Kd (µM)
Write the answer as a number in µM, unit excluded.

Exercise: Using the record for `O=C(/C=C/c1ccc(O)c(O)c1)c1ccc(O)cc1O` , report its Kd.
Key: 3.48
